The measurements presented in this section are drawn from patent US20240270821A1.

Entries and their log10 EC50 values follow.
# measured_target: hGLP-1R (Homo sapiens, UniProt P43220)
# Sequence (P43220 24-463): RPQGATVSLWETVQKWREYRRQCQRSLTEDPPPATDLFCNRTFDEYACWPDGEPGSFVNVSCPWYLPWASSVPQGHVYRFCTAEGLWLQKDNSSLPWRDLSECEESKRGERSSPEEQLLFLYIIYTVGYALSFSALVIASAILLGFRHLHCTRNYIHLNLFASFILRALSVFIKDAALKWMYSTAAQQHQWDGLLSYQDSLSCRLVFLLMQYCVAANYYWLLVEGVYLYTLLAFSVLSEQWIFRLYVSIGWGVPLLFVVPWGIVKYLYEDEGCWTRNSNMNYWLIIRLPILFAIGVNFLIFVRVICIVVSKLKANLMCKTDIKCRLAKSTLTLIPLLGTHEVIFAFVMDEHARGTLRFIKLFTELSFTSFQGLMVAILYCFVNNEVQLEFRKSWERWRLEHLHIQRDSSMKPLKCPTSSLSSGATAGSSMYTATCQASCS
# measurement_description: Functional cAMP activity in the presence of 1% HSA
# Format: cell-based
# assay_conditions: read-out: cAMP Rel EC50, hGLP-1R
Starred links: 1 amine or outer side, 2 acyl side, 3 side chain; linkers in the order of their positions; H or OH if unused. Non-standard residues stand in square brackets, D forms with d. Groups on a side chain read outwards from the residue. No end group written: not given here. *: point of attachment. C20 diacid = O=C(O)CCCCCCCCCCCCCCCCCCC(=O)*; C18 diacid = O=C(O)CCCCCCCCCCCCCCCCC(=O)*; αMePhe(2-F) = C[C@](N)(Cc1ccccc1F)C(=O)O; γGlu = O=C(O)[C@H](CCC(=O)[*:2])N[*:1]; αMe4Pal = C[C@](N)(Cc1ccncc1)C(=O)O; αMeY = C[C@](N)(Cc1ccc(O)cc1)C(=O)O; 4Pal = N[C@@H](Cc1ccncc1)C(=O)O; αMeL = CC(C)C[C@](C)(N)C(=O)O; αMeS = C[C@](N)(CO)C(=O)O; Orn = NCCC[C@H](N)C(=O)O; Dap = NC[C@H](N)C(=O)O; AEEA = NCCOCCOCC(=O)O; Aib = CC(C)(N)C(=O)O
The base-10 logarithm of EC50, taken with EC50 in µM, is what appears here.

Past entries and their recorded results:
# substance, measured_property, numeric_result
data = [
    ("H-Y[Aib]QGT[αMePhe(2-F)]TSD[4Pal]SI[αMeL]LD[Orn]K([AEEA-γGlu-C18 diacid])AQ[αMe4Pal]EFI[dE][αMeY]LLEGGPSSGAPPPSGE-NH2 [Example 615]", "log10 EC50", -1.08),
    ("H-Y[Aib]QGTFTSDYS[Dap][αMeL]LDKK([AEEA-γGlu-C18 diacid])AQ[Aib]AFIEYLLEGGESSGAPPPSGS-NH2 [Example 360]", "log10 EC50", 0.00),
    ("H-Y[Aib]QGT[αMePhe(2-F)]TSD[4Pal][αMeS]I[αMeL]LD[Orn]K([AEEA-γGlu-C18 diacid])AQ[αMe4Pal]EFI[dE][αMeY]LVEGGPSSGEPPPSGTGE-NH2 [Example 734]", "log10 EC50", -1.42),
    ("Y[Aib]QGT[αMePhe(2-F)]TSDYSILLDKK([γGlu-γGlu-C18 diacid])AQ[Aib]AFIEYLEEGGPSSGAPPPSGE-NH2 [Example 435]", "log10 EC50", -1.47),
]

Recorded log10 EC50 for H-Y[Aib]QGTFTSD[4Pal]SQ[αMeL]LDKK([γGlu-γGlu-C18 diacid])AQ[αMe4Pal]AFIEYLIE[Aib]GPSSGAPPPSGSEEE-NH2 [Example 900] with hGLP-1R (Homo sapiens, UniProt P43220), please?
-0.18

Recorded log10 EC50 for Y[Aib]QGTFTSDFSK[αMeL]LDKK([AEEA-γGlu-C18 diacid])AQ[Aib]AFIEYLLEGGPSSGAPPPSEG-NH2 [Example 48] with hGLP-1R (Homo sapiens, UniProt P43220), please?
-0.24

Recorded log10 EC50 for H-Y[Aib]QGTFTSD[4Pal]SR[αMeL]LDKK([AEEA-γGlu-C18 diacid])AQ[αMe4Pal]AFIE[αMe4Pal]LIEGGPSSGAPPPSGSEE-NH2 [Example 956] with hGLP-1R (Homo sapiens, UniProt P43220), please?
-0.19

Recorded log10 EC50 for H-Y[Aib]QGTFTSDFS[Orn][αMeL]LDKK([AEEA-γGlu-C18 diacid])AQ[Aib]AFIEYLLAGGPSSGAPPPEGE-NH2 [Example 99] with hGLP-1R (Homo sapiens, UniProt P43220), please?
-0.23

Recorded log10 EC50 for H-Y[Aib]QGT[αMePhe(2-F)]TSD[4Pal]SI[αMeL]LD[Orn]K([γGlu-γGlu-C18 diacid])AQ[αMe4Pal]EFI[dE][αMeY]LIEGGPSSGAPPPSGE-NH2 [Example 616] with hGLP-1R (Homo sapiens, UniProt P43220), please?
-1.54

Recorded log10 EC50 for Y[Aib]QGTFTSD[4Pal]S[Orn][αMeL]LDKK([γGlu-γGlu-C18 diacid])AQ[αMe4Pal]AFIE[αMe4Pal]LIE[Aib]GPSSGEPPPSGS-NH2 [Example 989] with hGLP-1R (Homo sapiens, UniProt P43220), please?
-0.40

Recorded log10 EC50 for H-Y[Aib]Q[dA]T[αMePhe(2-F)]TSD[4Pal][αMeS]I[αMeL]LD[Orn]K([AEEA-γGlu-C18 diacid])AQ[Aib]EFI[dE][αMeY]LIEGGPSSGAPPPSGGGE-NH2 [Example 1223] with hGLP-1R (Homo sapiens, UniProt P43220), please?
-1.39

Recorded log10 EC50 for H-Y[Aib]QGTFTSDYSI[αMeL]LDKK([AEEA-AEEA-γGlu-C20 diacid])AA[Aib]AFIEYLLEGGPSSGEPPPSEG-NH2 [Example 294] with hGLP-1R (Homo sapiens, UniProt P43220), please?
-0.26
